System: SNB-75 CNS
Test: NCI tumour cell line growth inhibition, 48 h
recorded.metric: TGI

GET /values?readout=TGI&item= O=c1oc2c(Cl)cc(Cl)cc2cc1-c1cn2c(n1)sc1ccccc12
> 100 µM

Another: Nc1cc2c3ccccc3ccc2c2ccccc12
> 100 µM

# repeat for COc1ccc(-c2oc(C=Nc3ccccc3)c([N+](=O)[O-])c2-c2ccc(OC)c(OC)c2)cc1OC
> 100 µM

Try this compound too: O=S(=O)(O)c1ccc([Se][Se]c2ccc(S(=O)(=O)O)cc2)cc1
> 100 µM

Repeat for the following compound: COc1cc(OC)c(OC)cc1/C=C/c1ccc2ccccc2n1
> 10 µM

Repeat with Cc1cc(C(=O)NOCCO)c(Nc2ccc(I)cc2F)n(C)c1=O
> 100 µM

Would you mind doing Cc1ccc2c(=O)cc(-c3ccccc3)[nH]c2n1 as well?
> 100 µM

Then this compound: O=C(O)[C@@H](Cc1ccccc1)NS(=O)(=O)c1ccc(-c2ccccc2)cc1
> 100 µM

Record: COc1ccc2cc(CNCCOCCOCCNCc3ccc4cc(OC)ccc4c3)ccc2c1
3.03 µM

Ok, now CN(C)c1ccc(/C=C(\C#N)C(=O)c2ccccc2)cc1Br
> 100 µM

====

System: BT-549 breast
Test: NCI tumour cell line growth inhibition, 48 h; in the data active = GI50 below about 0.43 µM; inactive = the rest
# valid calls are true for active, false for inactive; nothing else

The following compounds have reported results that may help.
INSERT INTO measurements (compound, qualitative_label) VALUES
  ('C#Cc1cccc(NC(=O)C2CCCCN2C(=O)CCl)c1 (stereo not given)', 'false'),
  ('O=C(/C=C/c1cc2ccccc2[nH]c1=O)c1ccc(O)cc1', 'false'),
  ('[N-]=[N+]=NCCCn1c2c(c3ccccc3c1=O)C(=O)c1cc3c(cc1-2)OCO3', 'false'),
  ('CS(=O)(=O)Nc1cc(-c2ccc3ncnc(Nc4ccc(OCc5ccccn5)c(Cl)c4)c3c2)cnc1Cl', 'true'),
  ('CC(C)Cc1cc(-c2cccn2C)c(C#N)c(=O)[nH]1', 'false'),
  ('CCN(Cc1c(F)cccc1C(F)(F)F)c1ccc(CO)c(Cl)c1', 'false'),
  ('O=C(Nc1c(Cl)cccc1Cl)Oc1cccc2cccnc12', 'false'),
  ('O=C(COc1ccc(Cl)cc1Cl)NNc1ccc([N+](=O)[O-])cc1', 'false'),
  ('COc1cc(/C=C/[N+](=O)[O-])cc(OC)c1', 'false');

How did this test come out for O=C(Nc1cccc(Cl)c1)Nc1cc(C(F)(F)F)ccc1Cl ?
false

====

Test system: SK-OV-3 ovarian
Assay: NCI tumour cell line growth inhibition, 48 h
Measured TGI, listed per entry.

INSERT INTO measurements (compound, experimental_value) VALUES
  ('CC1O[C@@H]2CCCCC(=O)[C@]2(C)[C@H]1C (stereo partly drawn)', '> 100 µM'),
  ('OCC1OC(N2CCN(C3OC(CO)C(O)C(O)C3O)CC2)C(O)C(O)C1O (stereo not drawn)', '> 100 µM'),
  ('O=c1oc2c(Cl)cc(Cl)cc2cc1-c1cn2c(n1)sc1ccccc12', '> 100 µM'),
  ('Cc1[nH]c(-c2ccccc2)c(O)c1C(=O)OC1CC(C)CCC1C(C)C (stereo not drawn)', '29.1 µM'),
  ('Clc1cccc(C=NC23CC4CC(CC(C4)C2)C3)c1Cl', '> 10 µM');

Name the reported TGI value associated with the compound O=C(Nc1n[nH]c2cc(-c3ccc(F)cc3)ccc12)C1CC1
20.3 µM

Now give it for CC(=O)Nc1ccc(S(=O)(=O)Nc2cnc3ccccc3n2)cc1 too.
> 100 µM

====

Tested on: KM12 colon
Experiment: NCI tumour cell line growth inhibition, 48 h
recorded.metric: GI50

INSERT INTO measurements (molecule, experimental_value) VALUES
  ('COc1cc(N2CCN(C(C)C)CC2)ccc1Nc1nc(Nc2ccc(F)cc2C(N)=O)c2cc[nH]c2n1', '3.14 µM'),
  ('COc1cc(-c2cc(-c3ccc(Nc4nc(Nc5ccc(Cl)cc5)nc(Nc5ccc(Cl)cc5)n4)cc3)no2)cc(OC)c1OC', '14.2 µM'),
  ('CCCCCCCC(=O)[O-].N.N.N.N.N.[Co+3].[O-][Cl+3]([O-])([O-])[O-]', '> 100 µM'),
  ('C=C1[C@H](O)C[C@@H](C(C)C(O)CC=C(C)C)[C@@H](O)[C@@H]2C(C)=CC[C@@H]12 (stereo not given in full)', '> 100 µM'),
  ('COc1cc(/C=C/[N+](=O)[O-])cc(OC)c1', '3.08 µM');

What measured GI50 is associated with c1ccc2c(c1)CCCc1nnc3nc4ccccc4n3c1-2 on KM12 colon?
5.37 µM

Likewise for Cc1ccccc1N=C(c1ccccc1)C1C(=O)c2ccccc2C1=O ?
10.7 µM

Record: CS(=O)(=O)Nc1cc(-c2ccc3ncnc(Nc4ccc(OCc5ccccn5)c(Cl)c4)c3c2)cnc1Cl
0.572 µM

Proceed to COc1ccc(C2CC(=O)Nc3c2c(C)nn3-c2nc3ccccc3[nH]2)cc1OC (stereo not given)
3.7 µM

Next molecule: Nc1cc2c3ccccc3ccc2c2ccccc12
> 100 µM

====

Test system: SK-MEL-28 melanoma
Assay: NCI tumour cell line growth inhibition, 48 h
Catalogue of TGI values
Lab book: enter the figure in µM, no units written.

INSERT INTO results (structure_smiles, experimental_value) VALUES
  ('Oc1ccccc1-c1cnnc(-c2ccccc2O)c1', 88.3);

I have this compound here, Clc1ccc(CCNCCNC2(c3cc4ccccc4s3)CCCCC2)cc1Cl , and I need its recorded TGI.
3.24

====

# maps each entry to its TGI
System: OVCAR-5 ovarian
Test: NCI tumour cell line growth inhibition, 48 h

Example entries begin here.
INSERT INTO measurements (compound, experimental_value) VALUES
  ('COC(=O)c1cc(NC(=O)Cn2c3ccccc3c3ccccc32)cn1C', '> 100 µM'),
  ('O=C(O)[C@@H](Cc1ccccc1)NS(=O)(=O)c1ccc(-c2ccccc2)cc1', '> 100 µM'),
  ('COc1ccc2nc3c(nc2c1)C(C)(C)C=C3c1ccc(Br)cc1', '> 100 µM'),
  ('O=C1C2Cc3ccccc3CN2C(=O)N1CN1CCCCC1 (stereo not drawn)', '> 100 µM'),
  ('CCN(CC(O)COc1ccc2c(c1)[n+]([O-])nc(N)[n+]2[O-])C(C)=O (stereo not drawn)', '> 100 µM');

Recorded TGI for O=C(C#Cc1ccccc1)N1CCCCC1 , please?
> 100 µM

What about CS(=O)(=O)Nc1cc(-c2ccc3ncnc(Nc4ccc(OCc5ccccn5)c(Cl)c4)c3c2)cnc1Cl ?
4.58 µM

Also Oc1ccccc1-c1cnnc(-c2ccccc2O)c1 ?
61.8 µM

What do you have for C=C1C(=O)OC2C=C(C)CC3C=C(CCC=C(C)CCC12)C(=O)O3 (stereo not drawn) ?
208 µM

Then this compound: CC1O[C@@H]2CCCCC(=O)[C@]2(C)[C@H]1C (stereo partly drawn)
> 100 µM

Please give the result for O=C(COc1ccc(Cl)cc1Cl)NNc1ccc([N+](=O)[O-])cc1 too.
> 100 µM

Same lookup for O=C(NC12CC3CC(CC(C3)C1)C2)n1cnc2c(Cl)ncnc21 , please.
> 100 µM

Another: COc1cc([C@@H]2c3cc4c(cc3[C@H](OC3OC5COC(C(C)C)OC5C(O)C3O)C3COC(=O)[C@@H]32)OCO4)cc(OC)c1OC (stereo partly drawn)
> 73.8 µM

====

System: DMS 273 small cell lung
Experiment: NCI tumour cell line growth inhibition, 48 h
recorded.metric: TGI

Recorded TGI, per entry:
INSERT INTO results (molecule, recorded_metric, experimental_value) VALUES
  ('CC1=NN(c2ccccc2)C(=O)C1N=Nc1ccc(Br)cc1C (centres undefined)', 'TGI', '> 100 µM'),
  ('CC(C)C(N=C1CC2CCC1(C(=O)Nc1ccccc1O)C2(C)C)c1ccccc1 (centres undefined)', 'TGI', '> 10 µM'),
  ('O=C1/C(=C/c2ccc(C(=O)O)cc2)CNC/C1=C\c1ccc(C(=O)O)cc1', 'TGI', '> 100 µM');

# input for lookup
State the recorded TGI for this entry: Nc1nc2c(nnn2C2C=C(CO)C(O)C2O)c(=O)[nH]1 (centres undefined)
> 100 µM

====

Tested on: MOLT-4 leukemia
Test: NCI tumour cell line growth inhibition, 48 h; in the data active means GI50 below about 0.43 µM; inactive means the rest
Response enum: active, inactive

Recorded results for 5 compounds are shown here.
INSERT INTO results (compound, qualitative_label) VALUES
  ('O=c1[nH]c(=O)n(C2C[C@@H](O)[C@@H](CO)O2)cc1F (stereo not given in full)', 'active'),
  ('CCCCCCCC(=O)[O-].N.N.N.N.N.[Co+3].[O-][Cl+3]([O-])([O-])[O-]', 'inactive'),
  ('COC1C[C@H](O[C@@H]2C[C@H](O[C@@H]3C[C@H](O[C@@H]4C(=O)c5c(cc6cc(O[C@H]7C[C@@H](O[C@H]8C[C@@H](O)[C@H](O)C(C)O8)[C@H](O)C(C)O7)c(C)c(O)c6c5O)C[C@H]4C(OC)C(=O)[C@@H](O)[C@@H](C)O)OC(C)[C@H]3O)OC(C)[C@@H]2O)OC(C)[C@@H]1O (stereo not given in full)', 'active'),
  ('CC(=O)Nc1ccc2c(c1)[nH]c(=O)c1cc(NC(C)=O)ccc12', 'inactive'),
  ('O=C(O)[C@@H](Cc1ccccc1)NS(=O)(=O)c1ccc(-c2ccccc2)cc1', 'inactive');

Please indicate how the test categorized CCN(Cc1c(F)cccc1C(F)(F)F)c1ccc(CO)c(Cl)c1 .
inactive

Would you mind doing O=C(COc1ccc(Cl)cc1Cl)NNc1ccc([N+](=O)[O-])cc1 as well?
inactive

Another compound to check: COc1ccc(CNCCN2C(=O)c3ccc4c5c(ccc(c35)C2=O)C(=O)N(CCNCc2ccc(OC)c(OC)c2OC)C4=O)c(OC)c1OC
active

What about this compound? N/C(=N/O)NOCCC(N)C(=O)O (stereo not given)
inactive

Record: CN1CCN(CCCn2c3c(sc4ncccc43)c(=O)n3nnc(-c4ccccc4)c23)CC1
inactive
